System: LoVo
Assay: cells
Settings: Homo sapiens, LoVo, 48 h, read-out: LOVO GI50
Experimental: This form of the assay employs 96 well cell culture microplates of 9 mm diameter (Faircloth, 1988; Mosmann, 1983). Most of the cell lines are obtained from American Type Culture Collection (ATCC) derived from different human cancer types. […] The values for mean +/− SD of data from triplicate wells are calculated. Some parameters for cellular responses can be calculated: GI=growth inhibition, TGI=total growth inhibition (cytostatic effect) and LC=cell killing (cytotoxic effect).
Entries and their GI50 values follow.
Give your result in nM as a bare value.

Worked examples, 2 compounds total:
INSERT INTO measurements (compound, unit_spec, value) VALUES
  ('COc1c(C)cc2c(c1O)[C@H]1N[C@@H](C2)[C@H](O)N2C1[C@@H]1SC[C@]3(NCCc4c3[nH]c3ccc(C)cc43)C(=O)OC[C@H]2c2c3c(c(C)c(OC(C)=O)c21)OCO3 (some centres unmarked) [compound 66]', 'nM', 5.27),
  ('C=CCN1[C@@H]2c3c(cc(C)c(OC)c3O)C[C@H]1[C@H](C#N)N1C2[C@@H]2SC[C@]3(NCCc4cc(O)c(OC)cc43)C(=O)OC[C@H]1c1c3c(c(C)c(OC(=O)CCCCCCC)c12)OCO3 (some centres unmarked) [compound 50]', 'nM', 4940);

What does the record list as GI50 for C=CCN1[C@@H]2c3c(cc(C)c(OC)c3O)C[C@H]1[C@H](C#N)N1C2[C@@H]2SC[C@]3(NCCc4cc(OC(=O)OC(C)(C)C)c(OC)cc43)C(=O)OC[C@H]1c1c3c(c(C)c(O)c12)OCO3 (some centres unmarked) [compound 46] ?
55.3

What does the record list as GI50 for C=CCN1[C@@H]2c3c(cc(C)c(OC)c3O)C[C@H]1[C@H](C#N)N1C2[C@@H]2SC[C@]3(NCCc4c3[nH]c3ccc(OC)cc43)C(=O)OC[C@H]1c1c3c(c(C)c(OC(C)=O)c12)OCO3 (some centres unmarked) [compound 56] ?
23

What does the record list as GI50 for COc1c(C)cc2c(c1OC(=O)/C=C/c1ccccc1)[C@H]1N[C@@H](C2)[C@H](O)N2C1[C@@H]1SCC(NC(=O)C(F)(F)F)C(=O)OC[C@H]2c2c3c(c(C)c(OC(C)=O)c21)OCO3 (some centres unmarked) [compound 40] ?
213
